biological target: UniProtKB P0DTD1; assay: SARS-CoV-2 3C-like (3CL) protease fluorescence assay (FRET); assay type: biochemical; conditions: SARS-CoV-2 3CL-protease 10 nM, 30 min preincubation at RT, substrate 40 µM, test compounds 0 - 10 µM, duplicate; read-out: FRET IC50
Catalogue of molecules with associated IC50

Here's what some known entries look like.
Molecule	Value Measured
[2H]C([2H])([2H])N(C(=O)c1cnn(CC(F)(F)F)c1)[C@@H](CCCC)C(=O)N1C[C@]2(C[C@H]1C#N)C(=O)Nc1ccccc12	< 100 nM
CC(C)C[C@H](NC(=O)c1cc2c(F)cc(F)c(F)c2[nH]1)C(=O)N1C[C@]2(C[C@H]1C#N)C(=O)Nc1ccccc12	< 100 nM
CC(C)CC(C(=O)N1CC2(CC1C#N)C(=O)Nc1ccccc12)N(C)C(=O)c1nccc2ccccc12 (stereo not drawn)	100 to 1000 nM
[2H]C([2H])([2H])N(C(=O)C(O)c1ccc(F)cc1)C(CCCC)C(=O)N1CC2(CC1C#N)C(=O)Nc1ccccc12 (stereo not drawn) [Example 421]	< 100 nM
[2H]C([2H])([2H])N(C(=O)C(O)c1ccc(F)cc1)C(CCCC)C(=O)N1CC2(CC1C#N)C(=O)Nc1ccccc12 (stereo not drawn) [Example 420]	< 100 nM

Continue with the next molecule.
// query Which measured IC50 value corresponds to CN(C(=O)c1cc2c(F)cc(F)cc2[nH]1)[C@@H](Cc1ccc(O)cc1)C(=O)N1C[C@]2(C[C@H]1C#N)C(=O)Nc1ccccc12 ?
// result < 100 nM
